Entries annotated with measured Top
assay_system: T1, human CD73 ecto-domain recombinant protein (huCD73) (human, UniProt P21589 27-547)
T1 construct: also called soluble huCD73; soluble recombinant CD73
T1 sequence: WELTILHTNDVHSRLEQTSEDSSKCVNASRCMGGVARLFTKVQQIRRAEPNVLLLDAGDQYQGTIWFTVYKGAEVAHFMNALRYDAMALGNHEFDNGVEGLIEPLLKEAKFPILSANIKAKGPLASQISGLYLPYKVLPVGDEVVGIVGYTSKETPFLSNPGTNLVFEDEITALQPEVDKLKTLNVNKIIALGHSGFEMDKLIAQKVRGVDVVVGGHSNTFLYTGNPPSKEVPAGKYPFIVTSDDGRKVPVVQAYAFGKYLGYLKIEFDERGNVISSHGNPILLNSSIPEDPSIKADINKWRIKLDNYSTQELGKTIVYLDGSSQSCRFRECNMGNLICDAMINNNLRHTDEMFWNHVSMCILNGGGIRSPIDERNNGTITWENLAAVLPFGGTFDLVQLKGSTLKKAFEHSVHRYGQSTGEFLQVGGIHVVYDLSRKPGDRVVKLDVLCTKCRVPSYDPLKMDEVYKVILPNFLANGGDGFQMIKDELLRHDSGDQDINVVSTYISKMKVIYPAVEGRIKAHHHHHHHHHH
experiment_notes: indirect ELISA, coated huCD73 recombinant protein, curve fit
Please give a number only; it is taken to be in OD value.

Before answering, review these 2 worked examples.
JB24Chi (antibody, human IgG1, kappa, V domains shown, Phage antibody, chimeric human IgG1 / human kappa full chains) VH: QVQLQQSGLELVKPGASVKMSCKASGYTFTDYNMHWVKQSHGKSLEWIGYIKPHNGGTTYNPKFEGKATLTVNKSSSTAYMELRSLTSEDSAVYYCVRCDFLYWYFDVWGTGTTVTVSS VL: DIVMTQSPAIMSASLGERVTMTCTASSSVSSSYLHWYQQKPGSSPKLWIYSTSNLASGVPGRFSGSGSGTSYSLTISSMEAEDAATYYCHQYHRSPLTFGAGTKLEMKR ... 6600
JB94H3L3 (antibody, human IgG1, kappa, V domains shown, Humanized antibody of the 94 clone, human IgG1 / kappa) VH: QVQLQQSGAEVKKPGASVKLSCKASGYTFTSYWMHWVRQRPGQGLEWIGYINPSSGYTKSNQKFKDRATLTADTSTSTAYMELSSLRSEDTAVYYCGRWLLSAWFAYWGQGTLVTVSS VL: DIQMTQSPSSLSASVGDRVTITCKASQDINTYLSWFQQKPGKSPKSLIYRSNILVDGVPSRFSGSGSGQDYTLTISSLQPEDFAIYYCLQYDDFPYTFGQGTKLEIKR ... 8900

The measured Top associated with JB24H2L1 (antibody, human IgG1, kappa, V domains shown, Humanized antibody of JB24Chi, human IgG1 / kappa) VH: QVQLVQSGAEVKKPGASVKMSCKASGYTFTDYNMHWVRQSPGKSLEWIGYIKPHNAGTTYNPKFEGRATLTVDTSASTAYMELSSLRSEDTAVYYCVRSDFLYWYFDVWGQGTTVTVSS VL: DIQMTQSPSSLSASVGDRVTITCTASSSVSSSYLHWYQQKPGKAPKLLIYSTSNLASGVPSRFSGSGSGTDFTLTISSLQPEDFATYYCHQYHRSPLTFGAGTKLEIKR reads 6290
